Each recorded value in this set is attributed to the supplement of paper PMC9233669.

# System: biotinyl-Leu-oxazolone
# experiment.description: self-aminoacylation, catalytic enhancement (BLO) (fold over background); higher = more active; k-Seq, kA / k0A0; sequences stand for … in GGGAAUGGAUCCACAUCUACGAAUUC…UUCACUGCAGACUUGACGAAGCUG
Variants at the floor of the assay were thinned out.
Measured self-aminoacylation, listed per entry for reference.

Some sequences with known self-aminoacylation results, for comparison:
chain: AUGUUUGCUGAUAGUCGCAAG [Fam3.1 aminoacylation ribozyme variant]
value.type: self-aminoacylation
obs.value: 1.33
//
chain: AUUAACCUAGGUCAUUGGGUG [Fam2.2 aminoacylation ribozyme variant]
value.type: self-aminoacylation
obs.value: 3.23
//
chain: AAGUUUGCUCAAAGUCGCAAG [Fam3.1 aminoacylation ribozyme variant]
value.type: self-aminoacylation
obs.value: 0.974
//
chain: AUUACUCUGGUCAUCUAGUGA [Fam2.1 aminoacylation ribozyme variant]
value.type: self-aminoacylation
obs.value: 9.74
//
chain: CUACUUCAAACGAUCGGUCUG [Fam1A.1 aminoacylation ribozyme variant]
value.type: self-aminoacylation
obs.value: 0.68

GET /values?readout=self-aminoacylation&item= AGUACCCUGGUCUUCGAGUGA [Fam2.1 aminoacylation ribozyme variant] 5.96

Dear colleague, I am looking for the recorded self-aminoacylation of the following sequence: CUACUUAAAACAAUCGCUCUG [Fam1A.1 aminoacylation ribozyme variant] 0.481

Look up self-aminoacylation for this sequence: AUUACCCUGUCCAUCGAGUGA [Fam2.1 aminoacylation ribozyme variant] 11.3

// self-aminoacylation lookup, key: CCACACUUCAAACAAUCGGUC [Fam1B.1 aminoacylation ribozyme variant] 2.32

Item AUUGCCCGGGUCAUCGAGUGA [Fam2.1 aminoacylation ribozyme variant] has what recorded self-aminoacylation? 7.35

Item AAGCUUGCUACUAGUCGCAAG [Fam3.1 aminoacylation ribozyme variant] has what recorded self-aminoacylation? 2.03

For the sequence CCACACUUAAAGCAAACGGUC [Fam1B.1 aminoacylation ribozyme variant] , what self-aminoacylation is on record? 0.616

Please look up its self-aminoacylation: CUACUUAAAACAAUCGGUCGG [Fam1A.1 aminoacylation ribozyme variant] 0.857

Query (sequence): CCACACUUCAAGCAAUCUGUG [Fam1B.1 aminoacylation ribozyme variant] ; field requested: self-aminoacylation 0.657

// lookup self-aminoacylation for AUUUCCCUGGUCAUAGAGUGA [Fam2.1 aminoacylation ribozyme variant] 9.78

I have this sequence here, AACUUUGCUAAUAGUGGCAAG [Fam3.1 aminoacylation ribozyme variant] , and I need its recorded self-aminoacylation. 1.44

# lookup: self-aminoacylation of CCACACUUGACGCAAUCGGUC [Fam1B.1 aminoacylation ribozyme variant] 1.21

Suppose we examine the sequence AUUAACCUAGGUCAUGGGGUG [Fam2.2 aminoacylation ribozyme variant] ; what self-aminoacylation value has been reported? 4.82

Could you share which self-aminoacylation value was measured for CCACACUUCAAGCAAUCUAUC [Fam1B.1 aminoacylation ribozyme variant] ? 0.533

Name the recorded self-aminoacylation for AAGUCUGCUAAUAUUCGCAAG [Fam3.1 aminoacylation ribozyme variant] . 1.06

Report self-aminoacylation for AAGUGGGCUAAUAGUCGCAAG [Fam3.1 aminoacylation ribozyme variant] please. 1.44

Could you tell me which self-aminoacylation is on file for AUUCCUCUGGUCAUCGAGUGA [Fam2.1 aminoacylation ribozyme variant] ? 6.46

So what does the record say about self-aminoacylation for CCACACUACAAGCAACCGGUC [Fam1B.1 aminoacylation ribozyme variant] ? 0.948
